test system: MS2 coat protein; assay: apparent KD of MS2 coat protein; designed switch direction (-1 OFF switch, 1 ON switch): -1; higher = weaker reporter binding; settings: Eterna round: R95; input ligand: none
Kind request: treat 60 nM as inclusive, so apparent KD of MS2 coat protein at 60 nM or higher is 1 (yes), anything lower is 0 (no).

# example entries with known answers
monomerSequence: GGUUGGCGAGGAUAUACAUGAGGAUCACCCAUGUGAGAGAAGAAAGUGAGGAAGAAAAGUAGAAGGCGCUGACG [salish99_ex3_r3_004] (puzzle: Exclusion 3)
targetSystem: MS2 coat protein
assignedLabel: 1 (yes)

monomerSequence: CGUGUCUUUCACGUGAGUGGUGGGUGCAACAGGUGGGAAACAUGAGGAUCACCCAUGUCCUCAUUUGCUCGUCUUAU [Grok-var2-02] (puzzle: Sensor v3, turn-off variant 2)
targetSystem: MS2 coat protein
assignedLabel: 1 (yes)

monomerSequence: UAGAGACAUGAGGAUCACCCAUGUGAGGAUAUAGAGAAAGAUUGCGAGAGGGAGAGGACUAGAAGGCACAGUGA [JR_Exclu1_Sub033] (puzzle: Exclusion 1)
targetSystem: MS2 coat protein
assignedLabel: 0 (no)

Continue with the next sequence.
Prompt line: Check if apparent KD of MS2 coat protein >= 60 nM (inclusive). Item: ACAAGCUUUUUGUUCGUCUUAUACACUCCUAAUAAGACAACAUGAGGAUCACCCAUGUAACAAAUAAGAACUCAUGU [Sesor Array 5 - Jieux - Sensor v3, turn-off variant 2] (puzzle: Sensor v3, turn-off variant 2)
Response line: 1 (yes)
